Assay: Equilibrium dissociation constant for [3H]DPCPX binding to Adenosine A1 receptor from DDT1 MF2 cell membranes
Measurement Kind: Kd (nM)
Number in nM, nothing else.

IN: Given the entry CCCn1c(=O)c2[nH]c(C3CC4CCC3C4)nc2n(CCCCC(=O)c2ccc(S(=O)(=O)F)cc2)c1=O (configuration not stated) , report its measured Kd.
OUT: 0.53

IN: Kd lookup needed for `CCCn1c(=O)c2[nH]c(C3CCCC3)nc2n(CCCCC(=O)c2ccc(S(=O)(=O)F)cc2)c1=O` , thanks.
OUT: 0.53

* * *

Assay: Inhibitory concentration against [3H]DPCPX binding to Adenosine A1 receptor from DDT1 MF2 cells
Measurement Kind: IC50 (nM)
Please state the figure in nM; there is no need to write the unit.

IN: Can you share its IC50? I mean this molecule: CCCn1c(=O)c2[nH]c(C3CC4CCC3C4)nc2n(CCCCC(=O)c2ccc(S(=O)(=O)F)cc2)c1=O (configuration not stated)
OUT: 3.9

IN: Give the measured IC50 of `CCCn1c(=O)c2[nH]c(C3CCCCC3)nc2n(CCCCC(=O)c2ccc(S(=O)(=O)F)cc2)c1=O` .
OUT: 17

Source listed as BindingDB's records for doi:10.1016/s0960-894x(02)00639-x.
